test: Metabolite profiles in excreta (urine, feces); format: in vivo, human; conditions: male, human, urine and plasma, oral, 100 mg; amount in urine divided by mean plasma AUCinf; read-out: Renal clearance (CLr), estimated mean (converted)
MEASURED PROPERTY: CL renal (mL/min)
Numbers only, in mL/min.

Problem: Please look up its CL renal: COC(=O)N[C@@H](C)CNc1nccc(-c2cn(C(C)C)nc2-c2cc(Cl)cc(NS(C)(=O)=O)c2F)n1 [encorafenib]
Result: 8.33

----------
assay: Plasma PK of non-radiolabeled encorafenib; type: in vivo, human; conditions: human, plasma, oral, 100 mg, plasma; Mean (SD); read-out: Vz/F
MEASURED PROPERTY: Vd/F (L)
Numbers only, in L.

Problem: Please look up its Vd/F: `COC(=O)N[C@@H](C)CNc1nccc(-c2cn(C(C)C)nc2-c2cc(Cl)cc(NS(C)(=O)=O)c2F)n1`
Result: 235
